- study target: T1, VEGF (human, UniProt P15692-4 27-191, limits assumed)
- T1 construct: Biotinylated in the KDR-IgG ELISA, amine-coupled to the chip in BIAcore; also called biotinylated VEGF; vascular endothelial growth factor
- T1 sequence (P15692 other isoform, or with tags, fused parts or gaps limits assumed): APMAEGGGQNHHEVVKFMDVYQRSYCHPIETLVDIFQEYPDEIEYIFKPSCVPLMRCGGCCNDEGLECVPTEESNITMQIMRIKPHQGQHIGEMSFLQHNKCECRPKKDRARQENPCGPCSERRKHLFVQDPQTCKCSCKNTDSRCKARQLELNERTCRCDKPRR
- test name: competitive phage-ELISA, relative to pY0192
recorded endpoint: IC50 (mut)/IC50 (wt) (ratio)
Answers are plain numbers, in ratio.

Some solved entries appear below for comparison.
1. pY0192 VL N34A (Fab, V domains shown, Ala-scan variant of pY0192; Fab on phage) VH: EVQLVESGGGLVQPGGSLRLSCAASGYTFTNYGINWVRQAPGKGLEWVGWINTYTGEPTYAADFKRRFTFSLDTSKSTAYLQMNSLRAEDTAVYYCAKYPHYYGSSHWYFDVWGQGTL VL: DIQLTQSPSSLSASVGDRVTITCRANEQLSNYLAWYQQKPGKAPKVLIYFTSSLHSGVPSRFSGSGSGTDFTLTISSLQPEDFATYYCQQYSTVPWTFGQGTKVEIKR = 4
2. pY0192 VL T51A (Fab, V domains shown, Ala-scan variant of pY0192; Fab on phage) VH: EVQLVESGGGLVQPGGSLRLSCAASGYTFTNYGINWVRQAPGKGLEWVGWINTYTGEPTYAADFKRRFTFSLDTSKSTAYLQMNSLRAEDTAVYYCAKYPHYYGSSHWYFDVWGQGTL VL: DIQLTQSPSSLSASVGDRVTITCRANEQLSNYLNWYQQKPGKAPKVLIYFASSLHSGVPSRFSGSGSGTDFTLTISSLQPEDFATYYCQQYSTVPWTFGQGTKVEIKR = 1
3. pY0192 VL L54A (Fab, V domains shown, Ala-scan variant of pY0192; Fab on phage) VH: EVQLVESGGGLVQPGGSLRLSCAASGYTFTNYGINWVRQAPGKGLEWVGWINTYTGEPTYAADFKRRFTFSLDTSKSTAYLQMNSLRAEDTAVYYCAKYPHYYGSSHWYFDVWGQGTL VL: DIQLTQSPSSLSASVGDRVTITCRANEQLSNYLNWYQQKPGKAPKVLIYFTSSAHSGVPSRFSGSGSGTDFTLTISSLQPEDFATYYCQQYSTVPWTFGQGTKVEIKR = 1
4. pY0192 VH D111A (Fab, V domains shown, Ala-scan variant of pY0192; Fab on phage) VH: EVQLVESGGGLVQPGGSLRLSCAASGYTFTNYGINWVRQAPGKGLEWVGWINTYTGEPTYAADFKRRFTFSLDTSKSTAYLQMNSLRAEDTAVYYCAKYPHYYGSSHWYFAVWGQGTL VL: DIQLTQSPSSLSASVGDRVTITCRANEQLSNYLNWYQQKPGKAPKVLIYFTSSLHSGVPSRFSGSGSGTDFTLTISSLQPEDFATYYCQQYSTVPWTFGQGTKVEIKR = 2

Field: next binder
Any idea what its IC50 (mut)/IC50 (wt) is? The binder is pY0192 VH Y102A (Fab, V domains shown, Ala-scan variant of pY0192; Fab on phage) VH: EVQLVESGGGLVQPGGSLRLSCAASGYTFTNYGINWVRQAPGKGLEWVGWINTYTGEPTYAADFKRRFTFSLDTSKSTAYLQMNSLRAEDTAVYYCAKYPHAYGSSHWYFDVWGQGTL VL: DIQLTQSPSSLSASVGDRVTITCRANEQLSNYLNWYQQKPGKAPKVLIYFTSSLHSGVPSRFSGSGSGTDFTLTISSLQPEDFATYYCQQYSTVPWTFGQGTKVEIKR
4
